target: Platelet-activating factor acetylhydrolase IB subunit alpha2 (Homo sapiens) (UniProt P68402); assay: PAFAH1B2 enzyme inhibitors, primary screen, biochemical, fluorescence polarization, human (AID 492953); conditions: recombinant PAFAH1B2, FP-rhodamine activity probe, at 3.39 µM, active compounds read high;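 note: 0% = enzyme with DMSO and 100% = wells lacking PAFAH1B2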
Sequence (P68402 whole entry, looked up): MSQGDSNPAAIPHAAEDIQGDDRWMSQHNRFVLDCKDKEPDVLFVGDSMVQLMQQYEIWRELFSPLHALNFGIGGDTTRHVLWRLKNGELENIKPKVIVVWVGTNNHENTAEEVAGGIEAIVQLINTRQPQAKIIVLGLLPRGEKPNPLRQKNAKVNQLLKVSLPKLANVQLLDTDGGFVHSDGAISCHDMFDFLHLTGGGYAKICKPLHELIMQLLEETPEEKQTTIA
Hit rate of the full screen: of about 340,000 compounds, about 4,200 (1.2%) were called active. The entries come from a sample that favours actives as a whole.
Measurement Type: inhibition (%)

{"columns": ["Compound", "Measurement Type", "Measurement"],
 "data": [
  ["CC(C)C(c1nnnn1CCc1ccccc1)N1CCN(C(=O)c2ccco2)CC1 (stereo not given)", "inhibition", 3.54],
  ["CC(C)(C)c1ccc(C(=O)N2CCN(CCNC(=O)C(=O)Nc3ccc(F)cc3)CC2)cc1", "inhibition", 0.31],
  ["CCOc1ccccc1N(CC(=O)NC1CCCCC1)C(=O)CCCC(=O)Nc1ccccn1", "inhibition", 2.23],
  ["C=CCn1c(C23CC4CC(CC(C4)C2)C3)n[nH]c1=S", "inhibition", 29.8],
  ["Cc1c(C)c2c(OCC(=O)NCCCO)cc3c(c2oc1=O)CCC(C)(C)O3", "inhibition", 9.23],
  ["COc1ccc(C(=O)CSc2nnc(NC(=O)C3CC(=O)N(c4cccc(OC)c4)C3)s2)cc1 (stereo not given)", "inhibition", -6.09],
  ["COCC1CCCN(Cc2cn[nH]c2-c2cc3ccccc3o2)C1 (stereo not given)", "inhibition", -0.69],
  ["COc1cccc(N2CCN(CC(=O)Nc3ccnn3C3CCCC3)CC2)c1", "inhibition", 1.78],
  ["CN1CCN(C(=O)CCc2ncc(C(F)(F)F)cc2Cl)CC1", "inhibition", -0.83],
  ["Cc1nn(-c2ncccn2)c2c1C(=O)CC(C)(C)C2Br (stereo not given)", "inhibition", 3.5]
]}

###

biological target: Platelet-activating factor acetylhydrolase IB subunit alpha2 (Homo sapiens) (UniProt P68402); assay: PAFAH1B2 enzyme inhibitors, primary screen, biochemical, fluorescence polarization, human (AID 492953); settings: recombinant PAFAH1B2, FP-rhodamine activity probe, at 3.39 µM, active compounds read high;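 note: 0% = enzyme with DMSO and 100% = wells lacking PAFAH1B2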
The campaign covered roughly 340,000 compounds. About 4,200 (1.2%) were called active. Many of the other results were omitted from the sample, so actives are more common in it than they were.
Measurement Type: inhibition

{"columns": ["Molecule", "Measurement"],
 "data": [
  ["O=C(CC(=O)c1cccnc1)c1ccccc1", "0.07% (inactive)"],
  ["COc1ccc(C2c3c(C)nn(-c4ccccc4)c3NC(=O)N2c2ccccc2)cc1 (centres undefined)", "0.39% (inactive)"],
  ["COCCSc1nnc(NC(=O)c2cc(OC)c(OC)cc2[N+](=O)[O-])s1", "4.45% (inactive)"],
  ["Cc1ccc(C(=O)COC(=O)CCN2C(=O)C3C4CC(C(Br)C4Br)C3C2=O)cc1 (centres undefined)", "-1.23% (inactive)"]
]}

###

The entries below are paired with their reported inhibition.
target: Platelet-activating factor acetylhydrolase IB subunit alpha2 (Homo sapiens) (UniProt P68402); test: PAFAH1B2 enzyme inhibitors, primary screen, biochemical, fluorescence polarization, human (AID 492953); details: recombinant PAFAH1B2, FP-rhodamine activity probe, at 3.39 µM, active compounds read high;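 note: 0% = enzyme with DMSO and 100% = wells lacking PAFAH1B2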
The campaign covered roughly 340,000 compounds. About 4,200 (1.2%) were called active. The full list was thinned out, with actives kept by preference.
Measurement Type: inhibition (%)

{"columns": ["Compound", "Measurement"],
 "data": [
  ["Nc1nc(SC23CC4CC(CC(C4)C2)C3)ns1", 25.4],
  ["COc1ccccc1CCNC(=O)C1CCN(C(=O)/C=C/c2ccccc2)CC1", 10.8],
  ["C=CCn1c(C(C)NC(=O)CC)nc2ccccc21 (configuration not stated)", 0.58],
  ["O=C(CCNC(=O)C1CCN(S(=O)(=O)c2ccccc2)CC1)NC1CC1", 1.71],
  ["CCCC1OC23CCCCC2C(C#N)(C#N)C1(C#N)C(=N)O3 (configuration not stated)", 29.1],
  ["Cc1ccc(S(=O)(=O)N2CCC(N3CCCCCC3)CC2)cc1", 5.12],
  ["O=C(O)/C=C/C(=O)NNc1ccc([N+](=O)[O-])cc1", 4.93],
  ["Cc1cc(NC(=O)CSc2nc3ccccc3n2CC(C)C)no1", 4.62],
  ["COc1ccc(CCNC(=O)c2ccc(NC(=O)CC3SC(N4CCCCC4)=NC3=O)cc2)cc1OC (configuration not stated)", 1.09],
  ["CCc1ccc(NC(=O)CN2C(=O)CSC2=O)cc1", 4.64],
  ["Cc1ccc(S(=O)(=O)N(CCCN(C)C)Cc2ccc3c(c2)OCO3)cc1", 1.52],
  ["CN(C(=O)c1ccc(NC(=O)Cc2cccc(NC(=O)C3CCN(C(=O)c4ccccc4)CC3)c2)cc1)C1CC1", 4.32],
  ["Nc1scc(-c2ccncc2)c1Cl", 89.9],
  ["O=C(COc1ccccc1Cl)Nc1ccccc1C(=O)NC1CC1", 0.96],
  ["CN(C)c1nc(N)nc(CSc2nnnn2-c2cccc3ccccc23)n1", 1.2],
  ["CC(=O)Nc1ccc(S(=O)(=O)Oc2ccc(Br)cc2C(=S)N2CCOCC2)cc1", 0.45],
  ["COC(=O)C1=C(N)Oc2cc(C)[nH]c(=O)c2C1c1ccc(Cl)cc1 (configuration not stated)", -2.03]
]}
